- Test system: KKA^y mouse
- method-summary: Hypoglycemic and hypolipidemic effect in KKA^y mouse (oral, once a day for three days)
- Type: in vivo
- measurement-setup: KKA^y mice, dosage 100 mg/kg, blood 18 hours after final administration
Consider the following compounds and their measured Triglyceride concentration (% per control) readings.
I'd appreciate it if you included the unit after the number.

Here is how some compounds turned out for Triglyceride concentration (% per control).
| compound | value-measured |
| --- | --- |
| Cc1c(C)c2c(c(C)c1O)CCC(C)(COc1ccc(CC3SC(=O)NC3=O)cc1)O2 (stereo not shown) [Troglitazone, reference compound] | 101 % per control |
| O=C(O)C(Cc1cnc2ccc(OCc3ccc(C(F)(F)F)cc3)cc2c1)Sc1ccccc1 (stereo not shown) | 60 % per control |
| Cc1oc(-c2ccccc2)nc1CCc1noc2cc(CC(Sc3ccccc3)C(=O)O)ccc12 (stereo not shown) | 31 % per control |

Now turn to the next compound.
What value of Triglyceride concentration (% per control) has been recorded for this entry: CCc1ccc(CCOc2ccc(CC3SC(=O)NC3=O)cc2)nc1.Cl (stereo not shown) [Pioglitazone hydrochloride, reference compound]
69 % per control

###

Below, each entry is listed with its recorded Plasma glucose concentration (% per control).
- System: KKA^y mouse
- method-summary: Hypoglycemic and hypolipidemic effect in KKA^y mouse (oral, once a day for three days)
- Format: in vivo
- measurement-setup: KKA^y mice, dosage 100 mg/kg, blood 18 hours after final administration
# number only, unit % per control dropped from output

Worked cases, answers included:
| compound | value-measured |
| --- | --- |
| O=C(O)C(Cc1cnc2ccc(OCc3ccc(C(F)(F)F)cc3)cc2c1)Sc1ccccc1 (stereo not shown) [Compound 1] | 68 |
| CCc1ccc(CCOc2ccc(CC3SC(=O)NC3=O)cc2)nc1.Cl (stereo not shown) [Pioglitazone hydrochloride, reference compound] | 65 |
| Cc1c(C)c2c(c(C)c1O)CCC(C)(COc1ccc(CC3SC(=O)NC3=O)cc1)O2 (stereo not shown) [Troglitazone, reference compound] | 68 |

Shifting focus to the compound that follows.
Query Plasma glucose concentration (% per control) on KKA^y mouse for Cc1oc(-c2ccccc2)nc1CCc1noc2cc(CC(Sc3ccccc3)C(=O)O)ccc12 (stereo not shown) [Compound 6]
46

The reported measurements were obtained from patent US20020032330A1.
